Cited source for all entries: patent US20110142868A1

target: caspase-3
protocol.notes: cell-based or functional assay
Numbered stars: 1 amine (or outer) side, 2 acyl side, 3 side chain; on linkers, the order of the positions; unused ones are H or OH. Square brackets hold non-standard residues; d marks the D form. Ends that are not written are not given here. O(CA) = ornithine chloroamidine, N=C(CCl)NCCC[C@H](N[*:1])C(=O)[*:2]; Orn(fluoroacetimidoyl) = N=C(CF)NCCC[C@H](N)C(=O)O
endpoint.label: IC50 values (µM), caspase-3 activity assay
Your answer is read as µM, so omit the unit and give the number.

{"binder": "Ac-KFD[Orn(fluoroacetimidoyl)]DFI-NH2 (SMILES CC[C@H](C)[C@H](NC(=O)[C@H](Cc1ccccc1)NC(=O)[C@H](CC(=O)O)NC(=O)[C@H](CCCNC(=N)CF)NC(=O)[C@H](CC(=O)O)NC(=O)[C@H](Cc1ccccc1)NC(=O)[C@H](CCCCN)NC(C)=O)C(N)=O) [0743-58FA]", "obs.value": 920}

In the following, a different binder is considered.
Answer with the recorded IC50 values (µM), caspase-3 activity assay of Ac-GD[O(CA)]GS [CXP5.2-078] only. 1000
